Attribution: patent US20250066369A1

Measured IC50 values are reported for all entries that follow.
System: IL-1β release upon NLRP3 activation in peripheral blood mononuclear cells (PBMC)
Test: PBMC IC50 determination assay: inhibition of IL-1β release upon NLRP3 activation
Type: cell-based
Settings: PBMC, PBMC primed with LPS 3 h, compound 30 min, stimulated with ATP (5 mM) or nigericin (10 μM) 1 h; IL-1β by ELISA (Protocol A) or HTRF (Protocol B)

>  <smiles-repr>
CC(C)c1nn(CC(=O)N[C@@H]2CCCN(C3CC3)C2)c(=O)c2ncn(C)c12

>  <IC50>
10000 to 50000 nM

$$$$

Exercise: Which measured IC50 belongs to CCc1nn(CC(=O)Nc2ncc(F)cn2)c(=O)c2ccc(C3CC3)nc12 , tested on IL-1β release upon NLRP3 activation in peripheral blood mononuclear cells (PBMC)?
Key: 100 to 1000 nM

Exercise: Which measured IC50 belongs to CC(C)c1nn(CC(=O)Nc2ncc(F)cn2)c(=O)c2sc(Cl)cc12 , tested on IL-1β release upon NLRP3 activation in peripheral blood mononuclear cells (PBMC)?
Key: 100 to 1000 nM
